tested on: LNCaP-Vancouver prostate cells; experiment: In vitro LNCaP Vancouver prostate cell proliferation assay in lipid reduced medium; type: cell-based; conditions: read-out: pIC50 LNCaP_Vancouver prostate cell (converted)
PARAMETER: IC50 (nM)

N#Cc1ccc2ccc(-c3ccc(C4=NC5(CC5)C(=O)N4CC4CN(C(=O)C5(O)CC5)C4)c(F)c3)cc2c1: 2140

(a) Cn1cc(-c2ccc(-c3ccc(C4=NC5(CC5)C(=O)N4CC4CN(C(=O)C5(O)CC5)C4)c(F)c3)cc2)cn1
(b) Cc1cc(-c2ccc(C3=NC4(CC4)C(=O)N3CC3CN(C(=O)C4CC4)C3)c(F)c2)cc2cnn(C)c12
(c) O=C(C1CC1)N1CC[C@@H](CN2C(=O)C3(CC3)N=C2c2ccc(-c3ccc(F)c(Cl)c3)cc2)C1
(d) Cc1cc(-c2ccc3c(cnn3C)c2)ccc1C1=NC2(CC2)C(=O)N1C[C@@H]1CCN(C(=O)C2(C)CC2)C1
(e) Cc1cc2cc(-c3ccc(C4=NC5(CC5)C(=O)N4CC4CN(C(=O)C5CC5)C4)c(C)c3)ccc2s1
IN: Put the items in order so that reported IC50 rises from first to last. I'd appreciate it if you listed the labels in the requested order.
OUT: d, a, e, b, c
(d: 13.8 nM, a: 55 nM, e: 1700 nM, b: 2570 nM, c: 4170 nM)

====

target: hFASN enzyme (full length) (Homo sapiens, UniProt P49327); construct: 10 μL hFASN enzyme (full length, 300 ng, purified in house); made in house; experiment: Fatty Acid Synthase (FASN) inhibition scintillation proximity assay; assay type: biochemical; conditions: read-out: Human FASN pIC50 (converted)
Sequence (P49327 whole entry): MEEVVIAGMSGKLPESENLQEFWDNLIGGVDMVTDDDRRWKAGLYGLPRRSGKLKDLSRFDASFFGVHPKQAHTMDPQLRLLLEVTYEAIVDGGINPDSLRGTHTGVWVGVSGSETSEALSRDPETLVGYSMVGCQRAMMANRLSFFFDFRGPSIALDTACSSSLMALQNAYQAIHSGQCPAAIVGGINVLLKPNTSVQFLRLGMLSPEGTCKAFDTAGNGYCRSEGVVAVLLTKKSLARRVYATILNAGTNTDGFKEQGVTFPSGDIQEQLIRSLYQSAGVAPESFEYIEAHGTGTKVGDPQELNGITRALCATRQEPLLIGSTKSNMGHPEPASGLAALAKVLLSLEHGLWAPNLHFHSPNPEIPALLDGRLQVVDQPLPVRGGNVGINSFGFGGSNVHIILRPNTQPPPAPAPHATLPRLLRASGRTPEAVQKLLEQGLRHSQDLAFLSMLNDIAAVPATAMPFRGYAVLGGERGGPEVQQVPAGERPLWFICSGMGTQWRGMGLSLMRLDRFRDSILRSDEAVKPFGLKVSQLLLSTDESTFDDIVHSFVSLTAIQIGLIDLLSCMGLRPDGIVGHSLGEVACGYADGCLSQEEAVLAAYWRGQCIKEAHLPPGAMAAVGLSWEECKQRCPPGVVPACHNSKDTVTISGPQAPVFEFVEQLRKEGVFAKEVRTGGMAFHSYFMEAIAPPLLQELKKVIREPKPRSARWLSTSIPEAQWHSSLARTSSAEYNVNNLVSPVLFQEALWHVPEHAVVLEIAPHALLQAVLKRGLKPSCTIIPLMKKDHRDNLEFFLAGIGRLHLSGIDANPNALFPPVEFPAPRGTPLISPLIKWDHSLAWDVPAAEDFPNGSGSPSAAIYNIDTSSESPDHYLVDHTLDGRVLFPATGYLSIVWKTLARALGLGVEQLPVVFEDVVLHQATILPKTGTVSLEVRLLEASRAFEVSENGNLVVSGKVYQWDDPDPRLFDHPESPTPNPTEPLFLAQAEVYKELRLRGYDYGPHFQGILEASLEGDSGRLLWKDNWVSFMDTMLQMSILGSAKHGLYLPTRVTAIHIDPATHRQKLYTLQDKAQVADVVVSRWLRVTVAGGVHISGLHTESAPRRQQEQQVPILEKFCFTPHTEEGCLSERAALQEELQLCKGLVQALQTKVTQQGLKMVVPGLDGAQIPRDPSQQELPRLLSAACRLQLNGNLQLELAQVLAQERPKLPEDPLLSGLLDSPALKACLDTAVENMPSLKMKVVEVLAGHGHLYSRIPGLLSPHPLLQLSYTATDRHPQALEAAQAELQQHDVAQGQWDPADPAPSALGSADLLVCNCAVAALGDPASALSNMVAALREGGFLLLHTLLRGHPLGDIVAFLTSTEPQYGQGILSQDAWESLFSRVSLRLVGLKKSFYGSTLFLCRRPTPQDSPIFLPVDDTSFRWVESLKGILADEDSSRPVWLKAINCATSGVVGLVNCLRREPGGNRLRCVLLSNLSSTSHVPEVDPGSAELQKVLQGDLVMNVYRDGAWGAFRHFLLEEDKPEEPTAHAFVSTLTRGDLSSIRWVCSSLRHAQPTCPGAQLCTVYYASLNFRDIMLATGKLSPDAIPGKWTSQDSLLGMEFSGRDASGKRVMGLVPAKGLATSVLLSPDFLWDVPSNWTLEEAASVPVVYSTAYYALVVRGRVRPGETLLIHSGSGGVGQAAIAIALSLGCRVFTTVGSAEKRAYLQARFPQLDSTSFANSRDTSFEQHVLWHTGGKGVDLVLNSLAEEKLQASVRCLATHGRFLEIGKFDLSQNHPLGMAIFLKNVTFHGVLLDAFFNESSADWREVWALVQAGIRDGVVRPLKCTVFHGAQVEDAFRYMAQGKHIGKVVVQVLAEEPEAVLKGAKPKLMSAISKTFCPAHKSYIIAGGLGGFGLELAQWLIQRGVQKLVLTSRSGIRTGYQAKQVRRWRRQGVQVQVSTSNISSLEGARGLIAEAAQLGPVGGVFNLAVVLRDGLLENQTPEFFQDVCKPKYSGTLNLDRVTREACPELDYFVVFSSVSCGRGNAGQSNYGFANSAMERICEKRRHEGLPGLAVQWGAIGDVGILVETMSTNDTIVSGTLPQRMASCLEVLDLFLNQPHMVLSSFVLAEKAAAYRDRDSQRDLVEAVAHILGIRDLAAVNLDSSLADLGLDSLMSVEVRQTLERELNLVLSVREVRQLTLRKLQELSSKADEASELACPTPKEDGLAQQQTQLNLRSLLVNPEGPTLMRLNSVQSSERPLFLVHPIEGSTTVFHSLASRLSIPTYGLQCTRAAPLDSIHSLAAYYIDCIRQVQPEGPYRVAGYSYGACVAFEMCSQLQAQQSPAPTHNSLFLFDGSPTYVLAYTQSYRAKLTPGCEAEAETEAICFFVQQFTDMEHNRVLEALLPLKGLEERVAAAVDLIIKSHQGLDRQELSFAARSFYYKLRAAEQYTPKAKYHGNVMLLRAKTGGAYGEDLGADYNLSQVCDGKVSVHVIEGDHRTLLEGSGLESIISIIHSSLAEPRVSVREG
PARAMETER: IC50 (µM)

Some compounds with recorded IC50:
O=C(C1CC1)N1CC(CN2C(=O)C3(CC3)N=C2c2ccc(-c3ccc4cc(Cl)cnc4c3)cc2)C1: 0.0309
Cc1oc2ccc(-c3ccc(C4=NC5(CC5)C(=O)N4C[C@@H]4CCN(C(=O)C5CC5)C4)c(F)c3)cc2c1C: 0.0562

(a) Cc1ccc2ccc(-c3ccc(C4=NC5(CC5)C(=O)N4CC4CN(C(=O)C5CC5)C4)c(F)c3)cc2n1
(b) CN1CCC2(CC1)N=C(c1ccc(-c3ccc4[nH]ccc4c3)cc1)N(C[C@@H]1CCN(C(=O)C3CC3)C1)C2=O
(c) Cc1cc2cc(-c3ccc(C4=NC5(CC5)C(=O)N4CC4CN(C(=O)C5CC5)C4)c(F)c3)ccc2[nH]1
IN: Put the items in sequence by IC50, from largest down. I'd appreciate it if you listed the labels in the requested order.
OUT: a, b, c

====

target: hFASN enzyme (full length) (Homo sapiens); construct: 10 μL hFASN enzyme (full length, 300 ng, purified in house); made in house; assay: Fatty Acid Synthase (FASN) inhibition scintillation proximity assay; type: biochemical; conditions: read-out: Human FASN pIC50 (converted)
PARAMETER: IC50 (nM)

COc1nn(C)c2ccc(-c3ccc(C4=NC5(CC5)C(=O)N4C[C@@H]4CCN(C(=O)C5CC5)C4)cc3)cc12 [compound 557]: 372

(P) CS(=O)(=O)N1CCC2(CC1)N=C(c1ccc(-c3ccc4occc4c3)cc1)N(CC1CN(C(=O)C3CC3)C1)C2=O [compound 760]
(Q) Cc1cc(-c2ccc(-c3ccn(CC(C)C)n3)cc2)ccc1C1=NC2(CC2)C(=O)N1CC1CN(C(=O)C2(C)CC2)C1 [compound 602]
(R) O=C(C1CC1)N1CC[C@@H](CN2C(=O)C3(CC3)N=C2c2ccc(-c3ccc4c(c3)CCO4)cc2)C1 [compound 462]
IN: Put the items in sequence by IC50, from largest down. I'd appreciate it if you listed the labels in the requested order.
OUT: P, Q, R
